meta.source: PubChem BioAssay AID1963451

- Tested on: 521955-158-R6-J3-PDC complex spheroid growth, % test/control
- test.method.notes: Anticancer human tumor 521955-158-R6-J3-PDC patient-derived pancreatic carcinoma cell line growth inhibition [Asc]
- condition.summary: second compound 3 µM; first compound 0.01 µM; stronger effect = lower value
measured.attribute: viability, T/C

Worked set:
CCN1CCN(Cc2ccc(Nc3ncc(F)c(-c4cc(F)c5nc(C)n(C(C)C)c5c4)n3)nc2)CC1 + CCN1C(C(=O)NC23CCC(C(=O)O)(CC2)CC3)C(c2cccc(Cl)c2F)C2(C(=O)Nc3cc(Cl)ccc32)C12CCCCC2    101%
CNC(C)C(=O)NC1CN(S(=O)(=O)c2cccc(S(=O)(=O)N3CCC4CCC(C(=O)NC(c5ccccc5)c5ccccc5)N4C(=O)C(NC(=O)C(C)NC)C3)c2)CCC2CCC(C(=O)NC(c3ccccc3)c3ccccc3)N2C1=O (stereo not drawn) + CCN1C(C(=O)NC23CCC(C(=O)O)(CC2)CC3)C(c2cccc(Cl)c2F)C2(C(=O)Nc3cc(Cl)ccc32)C12CCCCC2    96%

Req: Please give the documented viability, T/C of NC1CCC(NC2CC2c2ccccc2)CC1 (stereo not drawn) + CCN1C(C(=O)NC23CCC(C(=O)O)(CC2)CC3)C(c2cccc(Cl)c2F)C2(C(=O)Nc3cc(Cl)ccc32)C12CCCCC2
Resp: 104%

---

- Tested on: 521955-158-R6-J3-PDC complex spheroid growth, % test/control
- test.method.notes: Anticancer human tumor 521955-158-R6-J3-PDC cell line growth inhibition [Asc];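 note: spheroids exposed to compounds for 7 days; 100% = DMSO vehicle control wells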
- condition.summary: second compound 10 µM; first compound 0.01 µM; stronger effect = lower value
Assignment: determine reported viability, T/C for the given molecules.
Give bare numbers, in %.

Solved cases (2 shown):
CCN1CCN(Cc2ccc(Nc3ncc(F)c(-c4cc(F)c5nc(C)n(C(C)C)c5c4)n3)nc2)CC1 + Cc1c(S(C)(=O)=O)c(-c2cc(F)cc(N3CCN(c4ccc(NS(=O)(=O)c5ccc(NC(CCN6CCC(C(=O)OCCCP(=O)(O)O)CC6)CSc6ccccc6)c(S(=O)(=O)C(F)(F)F)c5)cc4)CC3)c2)c(-c2ccc(Cl)cc2)n1C(C)C    16.3
O=C(c1ccc(F)c(F)c1Nc1ccc(I)cc1F)N1CC(O)([C@@H]2CCCCN2)C1 + Cc1c(S(C)(=O)=O)c(-c2cc(F)cc(N3CCN(c4ccc(NS(=O)(=O)c5ccc(NC(CCN6CCC(C(=O)OCCCP(=O)(O)O)CC6)CSc6ccccc6)c(S(=O)(=O)C(F)(F)F)c5)cc4)CC3)c2)c(-c2ccc(Cl)cc2)n1C(C)C    11.5

Req: Return viability, T/C (reported value) for this molecule: Cn1ncnc1[C@H]1c2n[nH]c(=O)c3cc(F)cc(c23)N[C@@H]1c1ccc(F)cc1 + Cc1c(S(C)(=O)=O)c(-c2cc(F)cc(N3CCN(c4ccc(NS(=O)(=O)c5ccc(NC(CCN6CCC(C(=O)OCCCP(=O)(O)O)CC6)CSc6ccccc6)c(S(=O)(=O)C(F)(F)F)c5)cc4)CC3)c2)c(-c2ccc(Cl)cc2)n1C(C)C
Resp: 15.5

---

- System: 521955-158-R6-J3-PDC complex spheroid growth, % test/control
- test.method.notes: Anticancer human tumor 521955-158-R6-J3-PDC cell line growth inhibition [Asc];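 note: spheroids exposed to compounds for 7 days; 100% = DMSO vehicle control wells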
- condition.summary: second compound 0.01 µM; first compound 0.1 µM; stronger effect = lower value
Answer each item with its documented viability, T/C.
Answers are plain numbers, in %.

C#Cc1c(F)ccc2cc(O)cc(-c3ncc4c(N5CC6CCC(C5)N6)nc(OCC56CCCN5CC(F)C6)nc4c3F)c12 (configuration not stated) + CNC(C)C(=O)NC1CN(S(=O)(=O)c2cccc(S(=O)(=O)N3CCC4CCC(C(=O)NC(c5ccccc5)c5ccccc5)N4C(=O)C(NC(=O)C(C)NC)C3)c2)CCC2CCC(C(=O)NC(c3ccccc3)c3ccccc3)N2C1=O    44.7

Moving on to another compound below.
Req: Return reported viability, T/C. Input compound: COc1c(OCCCN2CCOCC2)ccc2c3n(c(=NC(=O)c4cnc(N)nc4)nc12)CCN3 + CNC(C)C(=O)NC1CN(S(=O)(=O)c2cccc(S(=O)(=O)N3CCC4CCC(C(=O)NC(c5ccccc5)c5ccccc5)N4C(=O)C(NC(=O)C(C)NC)C3)c2)CCC2CCC(C(=O)NC(c3ccccc3)c3ccccc3)N2C1=O
Resp: 47
